target.desc: Thioredoxin reductase 1, cytoplasmic (Rattus norvegicus) (UniProt O89049)
Sequence (O89049 whole entry, looked up): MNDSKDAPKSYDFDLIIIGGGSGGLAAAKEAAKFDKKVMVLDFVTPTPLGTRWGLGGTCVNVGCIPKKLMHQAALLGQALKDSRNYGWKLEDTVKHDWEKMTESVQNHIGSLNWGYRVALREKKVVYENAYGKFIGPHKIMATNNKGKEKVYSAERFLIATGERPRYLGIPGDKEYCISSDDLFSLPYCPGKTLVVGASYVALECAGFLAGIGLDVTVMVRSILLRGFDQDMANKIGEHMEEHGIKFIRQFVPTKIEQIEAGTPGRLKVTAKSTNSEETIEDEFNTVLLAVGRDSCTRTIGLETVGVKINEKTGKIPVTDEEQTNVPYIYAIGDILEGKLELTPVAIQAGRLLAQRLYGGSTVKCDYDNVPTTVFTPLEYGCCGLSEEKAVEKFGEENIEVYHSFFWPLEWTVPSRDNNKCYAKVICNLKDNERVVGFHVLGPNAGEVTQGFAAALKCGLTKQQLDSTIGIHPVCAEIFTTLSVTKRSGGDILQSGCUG
procedure.text: qHTS Assay for Substrates of Mammalian Selenoprotein Thioredoxin Reductase 1 (TrxR1) (AID 488772);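 further: NADPH fluorescence in the first read after selenite addition and not the 8 min delta; a drop in NADPH fluorescence below the no-compound background marks a TrxR1 substrate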
measurement.context: purified TrxR1, NADPH consumption substrate assay; series mostly up to 57.1 µM
Source text: The selenoprotein thioredoxin reductase (TrxR; EC 1.8.1.9) is a FAD containing homodimeric pyridine nucleotide-disulfide oxidoreductase with many cellular roles. Together with NADPH and its prime substrate thioredoxin (Trx), the enzyme forms the core of the Trx system. […] This BioAssay is a validation of an NADPH fluorescence-based, dual-purpose qHTS rTrxR1 assay designed to find potential inhibitors and substrates of rTrxR1. […]
Results filed as inconclusive are left out. Active and inactive are the calls of the source. The call rests on the fitted dose curve; in most records, active means well fitted curve in the direction sought with a large enough effect; inconclusive means small, poorly fitted or top-dose-only effect, or another doubt; inactive means no such curve, though single readings can be large or run the other way.
Please answer using one outcome listed in t = active, f = inactive

Please review the entries below; each comes with its answer.
compound	group.label
CC(=O)SCC[N+](C)(C)C	f
COc1ccc2c(c1)CCC1C2CC[C@@]2(C)C1CC[C@@H]2NCCCCCCN1C(=O)CCC1=O (some centres not stated)	f
Nc1nc(Nc2ccccc2)nc2c1ncn2[C@@H]1O[C@H](CO)[C@@H](O)[C@H]1O	f
O=C(CCCCCN1CCN(c2ccccc2-c2ccccc2)CC1)NC1CCCc2ccccc21 (configuration not stated)	f
Oc1ccc(C2CNCc3sccc32)cc1O (configuration not stated)	f

-- ask Called result for "CCCCCCCCc1ccc(-c2ccc(C(=O)O)cc2)cc1"
-- reply f

-- ask Then what about the compound "O=C1C(SCCO)=C(SCCO)C(=O)c2ccccc21" ?
-- reply t

-- ask Then what about the compound "NC(=S)NCCC[C@H](N)C(=O)O" ?
-- reply f

-- ask Then what about the compound O=C(O)CC1CC(c2ccccc2)=NO1 (configuration not stated) ?
-- reply f

-- ask Then what about the compound "O=[N+]([O-])c1ccc2c(c1)S(=O)(=O)C=C2" ?
-- reply f

-- ask Then what about the compound CCCCCCCCCCCCCCCCCC(=O)OC(CC(=O)O)C[N+](C)(C)C (configuration not stated) ?
-- reply f

-- ask Then what about the compound "Clc1ccc(N2CCN(Cc3c[nH]c4ncccc34)CC2)cc1" ?
-- reply f

Data provenance is PubChem BioAssay (NCATS).
